target.or.system: Substance-P receptor (Cavia porcellus)
assay.protocol: Antagonism of the guinea pig tachykinin NK1 receptor
reported.endpoint: IC50 (nM)

COC(=O)c1ccccc1OCCCn1c(C(=O)C2CCN(CCC3(c4ccccc4)CCN(C(=O)c4cc(OC)c(OC)c(OC)c4)C3)CC2)nc2ccccc21 (centres undefined) | 16
COc1cc(C(=O)N2CCC(CCN3CCC(C(=O)c4nc5ccccc5n4Cc4ccc(F)cc4)CC3)(c3ccc(C(F)(F)F)cc3)C2)cc(OC)c1OC (centres undefined) | 117

(I) COc1cc(C(=O)N2CCC(CCN3CCC(C(=O)c4nc5ccccc5n4Cc4ccc(F)cc4)CC3)(c3ccc(Cl)c(Cl)c3)C2)cc(OC)c1OC (centres undefined)
(II) COc1cc(C(=O)N2CCC(CCN3CCC(C(=O)c4nc5ccccc5n4Cc4ccncc4)CC3)(c3ccccc3)C2)cc(OC)c1OC (centres undefined)
Sort I and II by IC50 descending and give the first. Refer to your chosen item by its label in the answer.
I
(I: 92 nM, II: 37 nM)

###

target.or.system: Histamine H1 receptor (Homo sapiens)
Sequence (P35367 whole entry): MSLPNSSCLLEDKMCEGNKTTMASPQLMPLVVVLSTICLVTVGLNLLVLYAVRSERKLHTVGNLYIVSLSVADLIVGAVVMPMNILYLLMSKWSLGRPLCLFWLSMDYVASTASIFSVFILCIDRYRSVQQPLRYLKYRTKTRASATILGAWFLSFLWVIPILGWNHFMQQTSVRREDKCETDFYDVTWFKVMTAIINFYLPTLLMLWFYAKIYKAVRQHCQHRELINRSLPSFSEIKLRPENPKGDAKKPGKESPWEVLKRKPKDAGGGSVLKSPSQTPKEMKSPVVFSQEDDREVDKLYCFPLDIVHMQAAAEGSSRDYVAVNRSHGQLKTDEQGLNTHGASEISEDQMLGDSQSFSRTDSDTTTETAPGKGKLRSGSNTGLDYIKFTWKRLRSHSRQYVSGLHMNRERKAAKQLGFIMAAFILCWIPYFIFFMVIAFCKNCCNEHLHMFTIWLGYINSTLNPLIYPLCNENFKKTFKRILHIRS
Format: functional
reported.endpoint: IC50 (nM)

(I) COc1cc(C(=O)N2CCC(CCN3CCC(C(=O)c4nc5ccccc5n4CCCOc4ccccc4C(=O)O)CC3)(c3ccccc3)C2)cc(OC)c1OC (stereo not drawn)
(II) COC(=O)c1ccccc1OCCCn1c(C(=O)C2CCN(CCC3(c4ccccc4)CCN(C(=O)c4cc(OC)c(OC)c(OC)c4)C3)CC2)nc2ccccc21 (stereo not drawn)
Problem: Given the entries I and II , determine which has the lower reported IC50. Refer to your chosen item by its label in the answer.
II

###

target.or.system: Substance-K receptor (Homo sapiens, UniProt P21452)
Sequence (P21452 whole entry): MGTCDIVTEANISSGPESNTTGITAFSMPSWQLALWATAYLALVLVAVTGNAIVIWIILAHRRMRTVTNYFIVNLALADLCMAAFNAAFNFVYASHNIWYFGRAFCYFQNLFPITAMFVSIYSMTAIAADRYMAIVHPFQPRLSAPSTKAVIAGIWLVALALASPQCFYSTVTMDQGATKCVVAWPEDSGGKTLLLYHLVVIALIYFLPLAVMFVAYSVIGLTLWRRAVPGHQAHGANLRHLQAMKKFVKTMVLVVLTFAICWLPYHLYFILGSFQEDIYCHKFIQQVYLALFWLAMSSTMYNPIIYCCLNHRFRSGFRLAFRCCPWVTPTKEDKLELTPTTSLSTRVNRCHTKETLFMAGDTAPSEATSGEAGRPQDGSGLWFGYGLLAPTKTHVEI
assay.protocol: Compound was evaluated for the antagonistic activity against Tachykinin receptor 2
reported.endpoint: pIC50
Note: pIC50 values are expressed as the negative base-10 logarithm of concentration in M.

COc1ccc(CCN2CCC(C(=O)c3nc4ccccc4n3Cc3ccc(F)cc3)CC2)cc1 | 5.47

Next molecule, pIC50 to be filled in.
Note down pIC50 recorded for COc1cc(C(=O)N2CC[C@](CCN3CCC(C(N)=O)(c4ccccc4)CC3)(c3ccc(Cl)c(Cl)c3)C2)cc(OC)c1OC
8.10

###

assay.protocol: Compound was tested for its solubility at pH 7.4
Assay type: physicochemical
condition.summary: buffer
reported.endpoint: solubility (µg/mL)
Give just the numeric value; µg/mL need not be written.

Note down solubility recorded for COc1cc(C(=O)N2CCC(CCN3CCC(C(=O)c4nc5ccccc5n4Cc4ccccn4)CC3)(c3ccccc3)C2)cc(OC)c1OC (configuration not stated)
38

###

target.or.system: Substance-P receptor (Cavia porcellus, UniProt P30547)
Sequence (P30547 whole entry): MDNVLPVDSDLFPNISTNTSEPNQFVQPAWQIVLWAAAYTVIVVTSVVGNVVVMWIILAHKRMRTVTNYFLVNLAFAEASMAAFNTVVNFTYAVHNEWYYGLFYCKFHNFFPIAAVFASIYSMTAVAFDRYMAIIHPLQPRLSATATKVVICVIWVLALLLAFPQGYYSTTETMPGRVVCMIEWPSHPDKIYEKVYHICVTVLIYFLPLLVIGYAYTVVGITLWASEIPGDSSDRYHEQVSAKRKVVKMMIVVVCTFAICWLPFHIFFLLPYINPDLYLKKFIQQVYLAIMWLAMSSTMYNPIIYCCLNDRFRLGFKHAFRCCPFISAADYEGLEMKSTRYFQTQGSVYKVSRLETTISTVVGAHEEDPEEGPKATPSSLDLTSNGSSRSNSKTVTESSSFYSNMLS
assay.protocol: Antagonism of the guinea pig tachykinin NK1 receptor
reported.endpoint: IC50 (nM)

COc1cc(C(=O)N2CCC(CCN3CCC(C(=O)c4nc5ccccc5n4Cc4ccc(C(=O)O)cc4)CC3)(c3ccccc3)C2)cc(OC)c1OC (configuration not stated) | 36
COc1cc(C(=O)N2CCC(CCN3CCC(C(=O)c4nc5ccccc5n4Cc4cccnc4)CC3)(c3ccccc3)C2)cc(OC)c1OC (configuration not stated) | 27
COc1cc(C(=O)N2CCC(CCN3CCC(C(=O)c4nc5ccccc5n4Cc4ccc(F)cc4)CC3)(c3ccccc3)C2)cc(OC)c1OC (configuration not stated) | 34

(A) COc1cc(C(=O)N2CCC(CCN3CCC(C(=O)c4nc5ccccc5n4Cc4ccccn4)CC3)(c3ccc(Cl)c(Cl)c3)C2)cc(OC)c1OC (configuration not stated)
(B) COc1cc(C(=O)N2CCC(CCN3CCC(C(=O)c4nc5ccccc5n4CCOCc4ccco4)CC3)(c3ccccc3)C2)cc(OC)c1OC (configuration not stated)
(C) COc1cc(C(=O)N2CCC(CCN3CCC(C(=O)c4nc5ccccc5n4Cc4ccc(F)cc4)CC3)(c3ccc(F)cc3F)C2)cc(OC)c1OC (configuration not stated)
Task field, ranking: reported IC50, descending order. Answer by listing the labels in the requested order.
C, A, B
